Overview of recorded viability at 0.1 µM for various compounds
# ASSAY NAME: Cytotoxicity against human A549 cells assessed as cell viability at 0.1 uM by MTT assay relative to control
# Assay type: cell-based
# TEST CONTEXT: read-out: Activity
Just the number please, in %, no unit attached.

MOLECULAR STRING: C#CCSc1nsc(NC(=O)Nc2ccccc2Cl)n1
UNITS TEXT: %
viability at 0.1 µM: 98.1
--
MOLECULAR STRING: CN1CCCC1=O
UNITS TEXT: %
viability at 0.1 µM: 98.6

Please examine the following record next.
"COc1ccc(CCCn2ncc3c2nc(N)n2nc(-c4ccco4)nc32)cc1" has a reported viability at 0.1 µM of 94.7

Measured values drawn from ChEMBL document CHEMBL4184095 for this set.
